Target: Peptide 1: Biotin-…-[Tyr(PC)]-acid
Sequence (peptide, as listed by the source): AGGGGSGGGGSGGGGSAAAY
Assay: scFv ELISA
Item-by-item account of OD450
Supply the numeric figure in OD450, leaving out any unit text.

| binder | OD450, OD450 |
| --- | --- |
| PcOxP_DB01_G09 (scFv, V domains shown, scFv in periplasmic extract) VH: EVQLLESGGGLVQPGGSLRLSCAASGFTFSDYYMEWVRQAPGKGLEWVAASRNKANTYTTEYADSVKGRFTISRDNSKNTLYLQMNSLRAEDTAVYYCARDYYGSSYWYFDVWGQGTLVTVSS VL: DIQMTQSPSSLSASVGDRVTITCTASESLYSSKHKVHYLAWYQQKPGKAPKLLIYGASNLYSGVPSRFSGSGSGTDFTLTISSLQPEDFATYYCAQFYSYPLTFGGGTKVEIK | 0.92 |

Return reported OD450. Input binder: PcOxP_DB02_B10 (scFv, V domains shown, scFv in periplasmic extract) VH: EVQLLESGGGLVQPGGSLRLSCAASGFTESDFYMEWVRQAPGKGLEWVAASRNKANDYTTEYADSVKGRFTISRDNSKNTLYLQMNSLRAEDTAVYYCARDYYGSSYWYFDVWGQGTLVTVSS VL: DIQMTQSPSSLSASVGDRVTITCTASESLYSSKHKVHYLAWYQQKPGKAPKLLIYGASNRYIGVPSRFSGSGSGTDFTLTISSLQPEDFATYYCAQFYVYPLTFGGGTKVEIK 0.67

Return reported OD450. Input binder: PcOxP_DB02_C05 (scFv, V domains shown, scFv in periplasmic extract) VH: EVQLLESGGGLVQPGGSLRLSCAASGFTASDFYMEWVRQAPGKGLEWVAASRNKANDYTTEYADSVKGRFTISRDNSKNTLYLQMNSLRAEDTAVYYCARDYYGSSYWYFDVWGQGTLVTVSS VL: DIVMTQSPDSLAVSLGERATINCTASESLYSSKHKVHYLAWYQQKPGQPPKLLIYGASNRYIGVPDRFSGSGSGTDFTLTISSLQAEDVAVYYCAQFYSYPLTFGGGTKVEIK 0.64
